Ref: patent US20070010671A1

# test_target: MCH receptor (Homo sapiens, UniProt Q99705)
# test_name: High throughput functional screening FLIPR/FDSS6000: inhibition of MCH-evoked intracellular Ca2+ changes
# Assay type: cell-based
# condition_notes: class by percent of control at 10^-7 M or by IC50; read-out: class
In this section, each of the compounds is paired with its reported IC50.

Below, each entry is followed by its recorded IC50 result.
CNC(=S)N[C@H]1CC[C@@H](Nc2nc(N(C)C)c3ccccc3n2)CC1 [compound 186]
> 200 nM
COc1ccc(NC(=O)N[C@H]2CC[C@@H](Nc3nc(N(C)C)c4ccccc4n3)CC2)c(C)c1 [compound 827]
< 50 nM
CCOC(=O)C(CC(C)C)NC(=O)NC1CCC(Nc2nc(N(C)C)c3ccccc3n2)CC1 (centres unmarked) [compound 34]
< 50 nM
COc1ccc(OC)c(NC(=O)N[C@H]2CC[C@@H](Nc3nc(N(C)C)c4ccccc4n3)CC2)c1 [compound 81]
50 to 200 nM
CN(C)c1nc(N[C@H]2CC[C@@H](NC(=S)NC(C)(C)C)CC2)nc2ccccc12 [compound 199]
> 200 nM

// lookup IC50 for CN(C)c1nc(N[C@H]2CC[C@@H](NC(=O)Nc3cccc(Cl)c3Cl)CC2)nc2ccccc12 [compound 24]
> 200 nM

// lookup IC50 for CSc1cccc(NC(=O)N[C@H]2CC[C@@H](Nc3nc(N(C)C)c4ccccc4n3)CC2)c1 [compound 118]
50 to 200 nM

// lookup IC50 for COc1ccc(Cl)cc1NC(=O)N[C@H]1CC[C@@H](Nc2nc(N(C)C)c3ccccc3n2)CC1 [compound 835]
> 200 nM

// lookup IC50 for CC(=O)c1cccc(NC(=S)N[C@H]2CC[C@@H](Nc3nc(N(C)C)c4ccccc4n3)CC2)c1 [compound 153]
> 200 nM

// lookup IC50 for CN(C)c1nc(N[C@H]2CC[C@@H](NC(=S)NC3CCCC3)CC2)nc2ccccc12 [compound 162]
50 to 200 nM

// lookup IC50 for CN(C)c1nc(N[C@H]2CC[C@@H](CNC(=S)NCCN3CCCCC3)CC2)nc2ccccc12 [compound 813]
> 200 nM

----------
# test_target: MCH receptor (Homo sapiens, UniProt Q99705)
# test_name: High throughput functional screening FLIPR/FDSS6000: inhibition of MCH-evoked intracellular Ca2+ changes
# Assay type: cell-based
# condition_notes: class by percent of control at 10^−7 M or by IC50; read-out: class
# Text: Subsequently, a functional based assay was used to confirm the lead hits, referred to as FLIPR™ (the Fluorometric Imaging Plate Reader) and FDSS6000™ (Functional Drug Screening System). […] Fluorometric Imaging Plate Reader system was used to allow for rapid, kinetic measurements of intracellular fluorescence in 96 well microplates (or 384 well microplates). Simultaneous measurements of fluorescence in all wells can be made by FLIPR or FDSS6000™ every second with high sensitivity and precision. […]
measured_parameter: IC50

CN(C)c1nc(N[C@H]2CC[C@@H](CNC(=O)C(O)c3cc(F)ccc3F)CC2)nc2ccccc12 (relative stereo) [Example 1094]
> 0.2 µM

Value wanted: IC50 (MCH receptor (Homo sapiens, UniProt Q99705)) of entry CN(C)c1nc(N[C@H]2CC[C@@H](C(=O)NCc3c(F)cccc3F)CC2)nc2ccccc12 [Example 1152]
< 0.05 µM

Value wanted: IC50 (MCH receptor (Homo sapiens, UniProt Q99705)) of entry CC(NC(=O)[C@H]1CC[C@@H](Nc2nc(N(C)C)c3ccccc3n2)CC1)c1ccc(F)cc1 (relative stereo) [Example 1138]
< 0.05 µM
